biological target: Cea1A (=KpFlo1A) (Komagataella pastoris, UniProt A0A1B2J5V1); construct: gene ATY40_BA7500007; A domain, D78-E296, N-terminally His6-tagged; assay: weak binding KD (Supplementary Figure S6), validated by fluorescence titration
Sequence (A0A1B2J5V1 entry or part of it): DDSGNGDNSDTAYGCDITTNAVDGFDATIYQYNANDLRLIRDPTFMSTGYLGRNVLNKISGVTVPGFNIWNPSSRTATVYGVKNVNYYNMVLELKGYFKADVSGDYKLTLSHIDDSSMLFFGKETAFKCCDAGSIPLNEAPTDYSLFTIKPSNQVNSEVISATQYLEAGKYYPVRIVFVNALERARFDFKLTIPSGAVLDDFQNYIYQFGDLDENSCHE

{"columns": ["compound", "Kd (µM)"],
 "data": [
  ["OC[C@H]1OC(O)[C@H](O)[C@@H](O)[C@@H]1O (stereo partly shown)", 2380]
]}

* * *

molecular target: Cea1A (=KpFlo1A) (Komagataella pastoris); construct: gene ATY40_BA7500007; A domain, D78-E296, N-terminally His6-tagged; experiment: ITC and co-crystal structure ([…] Å); format: binding

{"columns": ["smilesStructure", "Kd [µM]"],
 "data": [
  ["CC(=O)N[C@@H]1[C@@H](O)[C@H](O)[C@@H](CO)O[C@H]1O", 7.67]
]}
